This section presents compounds with their documented Rate of suppression of edema values.
system: carrageenin-induced edema; assay: Duration of anti-inflammatory activity (carrageenin edema, varied premedication time); format: in vivo, rat (male, Wistar strain); conditions: premedicated 12 hr.; dose = ED50
Report the value in % with no unit label.

Worked cases, Rate of suppression of edema given:
>>> observed("CN1C(C(=O)Nc2cccc(F)n2)C(=O)c2ccccc2S1(=O)=O (centres unmarked) [Compound of formula (1)]")
39.1
>>> observed("COc1ccc2c(c1)c(CC(=O)O)c(C)n2C(=O)c1ccc(Cl)cc1 [Indomethacin, indomethacin]")
18.8

Data request: # lookup: Rate of suppression of edema of CN1C(C(=O)Nc2ccccn2)C(=O)c2ccccc2S1(=O)=O (centres unmarked) [Piroxicam]
Data returned: 38.8

Data request: # lookup: Rate of suppression of edema of Cc1cc(NC(=O)C2C(=O)c3ccccc3S(=O)(=O)N2C)no1 (centres unmarked) [Isoxicam]
Data returned: 36.3

Data request: # lookup: Rate of suppression of edema of CN1C(C(=O)Nc2nccs2)C(=O)c2ccccc2S1(=O)=O (centres unmarked) [Sudoxicam]
Data returned: 31.6

----------
tested on: carrageenin-induced edema; assay: Duration of anti-inflammatory activity (carrageenin edema, varied premedication time); format: in vivo, rat (male, Wistar strain); conditions: premedicated 1 hr.; dose = ED50
This section presents molecules with their documented Rate of suppression of edema values.
Report the value in % with no unit label.

Worked cases, Rate of suppression of edema given:
>>> observed("CN1C(C(=O)Nc2ccccn2)C(=O)c2ccccc2S1(=O)=O (stereo not drawn) [Piroxicam]")
57.6
>>> observed("O=C(O)Cc1ccccc1Nc1c(Cl)cccc1Cl [Diclofenac, diclofenac]")
45.9

Data request: Missing value: Rate of suppression of edema, carrageenin-induced edema, entry COc1ccc2c(c1)c(CC(=O)O)c(C)n2C(=O)c1ccc(Cl)cc1 [Indomethacin, indomethacin] . Fill in?
Data returned: 49.4

Data request: Missing value: Rate of suppression of edema, carrageenin-induced edema, entry CN1C(C(=O)Nc2nccs2)C(=O)c2ccccc2S1(=O)=O (stereo not drawn) [Sudoxicam] . Fill in?
Data returned: 49.8

Data request: Missing value: Rate of suppression of edema, carrageenin-induced edema, entry CN1C(C(=O)Nc2cccc(F)n2)C(=O)c2ccccc2S1(=O)=O (stereo not drawn) [Compound of formula (1)] . Fill in?
Data returned: 56.6

Data request: Missing value: Rate of suppression of edema, carrageenin-induced edema, entry Cc1cc(NC(=O)C2C(=O)c3ccccc3S(=O)(=O)N2C)no1 (stereo not drawn) [Isoxicam] . Fill in?
Data returned: 54.2

----------
This section presents molecules with their documented selectivity ratio values.
assay: in vivo; conditions: mouse, in vivo, po
The response must contain the number and no unit.

>>> observed("CN1C(C(=O)Nc2nccs2)C(=O)c2ccccc2S1(=O)=O (centres unmarked)")
98

Shifting focus to the molecule that follows.
Data request: # lookup: selectivity ratio of COc1ccc2c(c1)c(CC(=O)O)c(C)n2C(=O)c1ccc(Cl)cc1
Data returned: 3.7

----------
This section presents molecules with their documented Rate of suppression of edema values.
tested on: carrageenin-induced edema; test: Duration of anti-inflammatory activity (carrageenin edema, varied premedication time); assay type: in vivo, rat (male, Wistar strain); conditions: premedicated 48 hr.; dose = ED50
Report the value in % with no unit label.

>>> observed("CN1C(C(=O)Nc2cccc(F)n2)C(=O)c2ccccc2S1(=O)=O (stereo not shown)")
3.4
>>> observed("CN1C(C(=O)Nc2nccs2)C(=O)c2ccccc2S1(=O)=O (stereo not shown)")
-2.4
>>> observed("CN1C(C(=O)Nc2ccccn2)C(=O)c2ccccc2S1(=O)=O (stereo not shown)")
1.7

Data request: # lookup: Rate of suppression of edema of Cc1cc(NC(=O)C2C(=O)c3ccccc3S(=O)(=O)N2C)no1 (stereo not shown)
Data returned: 1.1
